target: Beta-1 adrenergic receptor (Homo sapiens, UniProt P08588); type: functional; note: assay procedure not described here
Sequence (P08588 whole entry): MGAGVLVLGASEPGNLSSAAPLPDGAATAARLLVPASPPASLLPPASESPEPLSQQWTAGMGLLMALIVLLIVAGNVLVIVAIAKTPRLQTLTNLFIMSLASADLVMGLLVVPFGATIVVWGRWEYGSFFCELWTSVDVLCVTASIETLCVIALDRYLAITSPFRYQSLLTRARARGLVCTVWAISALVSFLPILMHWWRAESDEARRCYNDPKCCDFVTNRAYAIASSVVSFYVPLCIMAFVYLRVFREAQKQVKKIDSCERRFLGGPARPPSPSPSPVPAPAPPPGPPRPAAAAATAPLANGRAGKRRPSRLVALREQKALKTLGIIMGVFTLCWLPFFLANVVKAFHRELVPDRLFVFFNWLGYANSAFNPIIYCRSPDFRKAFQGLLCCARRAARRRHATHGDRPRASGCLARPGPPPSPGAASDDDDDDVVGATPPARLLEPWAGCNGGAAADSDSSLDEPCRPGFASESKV
MEASURED ENDPOINT: AC50

Field: example entries. Status: answers known.
AC50 in this record for CCCCCCOC(=O)NC(=N)c1ccc(NCc2nc3cc(C(=O)N(CCC(=O)OCC)c4ccccn4)ccc3n2C)cc1 [DABIGATRAN ETEXILATE] : > 30 µM

Lookup result for CC1CC(OC(=O)C(O)c2ccccc2)CC(C)(C)C1 (configuration not stated) [CYCLANDELATE] ; measured AC50: > 10 µM

For reference, reported AC50 for Cc1ccc(-c2ncc(Cl)cc2-c2ccc(S(C)(=O)=O)cc2)cn1 [ETORICOXIB] stands at > 10 µM

What the record says about CCN(CC)Cc1nccn1-c1ccc([N+](=O)[O-])cc1C(=O)c1ccccc1Cl [NIZOFENONE] : AC50 is > 30 µM

---
Item: CN(C)CCN(Cc1ccccc1)c1ccccn1 [TRIPELENNAMINE] | AC50: > 30 µM

The reported AC50 of the compound CCCCCCCC(=O)CC[C@@H]1[C@@H](C/C=C\CCCC(=O)O)[C@@H](O)C[C@H]1O [UNOPROSTONE] was > 30 µM

###

Target: UniProtKB P35348
Sequence (P35348 whole entry): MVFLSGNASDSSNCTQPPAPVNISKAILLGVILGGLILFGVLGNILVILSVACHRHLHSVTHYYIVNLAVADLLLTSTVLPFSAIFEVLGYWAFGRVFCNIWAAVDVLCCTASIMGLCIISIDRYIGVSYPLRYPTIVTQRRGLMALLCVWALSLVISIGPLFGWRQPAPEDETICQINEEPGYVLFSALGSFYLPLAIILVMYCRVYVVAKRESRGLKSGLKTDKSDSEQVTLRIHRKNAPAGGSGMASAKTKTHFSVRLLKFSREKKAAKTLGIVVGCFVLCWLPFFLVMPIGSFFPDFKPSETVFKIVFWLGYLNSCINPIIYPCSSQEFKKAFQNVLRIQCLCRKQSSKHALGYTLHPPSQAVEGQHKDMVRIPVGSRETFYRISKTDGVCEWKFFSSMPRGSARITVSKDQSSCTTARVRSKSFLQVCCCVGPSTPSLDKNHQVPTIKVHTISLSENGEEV
MEASURED ENDPOINT: AC50

Would you please look over these solved cases?
AC50 reading for C[C@H](Nc1ncnc2[nH]cnc12)c1cc2cccc(Cl)c2c(=O)n1-c1ccccc1 [DUVELISIB] : > 30 µM

So for COc1cc(C(=O)NCc2ccc(OCCN(C)C)cc2)cc(OC)c1OC [TRIMETHOBENZAMIDE] , the logged AC50 turned out to be > 30 µM

In the following, a different compound is considered.
So, C#CCN(C)Cc1ccccc1 [PARGYLINE] ? Its AC50 was > 30 µM

###

target: 5-hydroxytryptamine receptor 1A (Homo sapiens, UniProt P08908); format: functional, cell-based; note: assay procedure not described here
Sequence (P08908 whole entry): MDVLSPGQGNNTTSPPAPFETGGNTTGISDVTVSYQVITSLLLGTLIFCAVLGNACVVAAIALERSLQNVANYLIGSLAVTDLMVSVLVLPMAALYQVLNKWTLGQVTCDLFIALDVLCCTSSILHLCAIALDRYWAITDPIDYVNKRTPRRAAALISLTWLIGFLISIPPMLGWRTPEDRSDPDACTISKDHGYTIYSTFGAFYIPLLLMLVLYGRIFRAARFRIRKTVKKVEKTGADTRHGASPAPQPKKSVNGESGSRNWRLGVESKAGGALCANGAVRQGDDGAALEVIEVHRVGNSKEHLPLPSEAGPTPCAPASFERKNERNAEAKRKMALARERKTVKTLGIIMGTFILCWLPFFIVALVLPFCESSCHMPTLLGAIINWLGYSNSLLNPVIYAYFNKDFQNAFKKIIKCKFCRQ
MEASURED ENDPOINT: AC50

Hey, 5-hydroxytryptamine receptor 1A (Homo sapiens, UniProt P08908) data for Nc1c2c(nc3ccccc13)CCCC2O (stereo not given) : AC50 came out at > 30 µM

Known value: 5-hydroxytryptamine receptor 1A (Homo sapiens, UniProt P08908) AC50 of the compound CCCCC[C@H](O)CC[C@@H]1[C@H]2Cc3cccc(OCC(=O)O)c3C[C@H]2C[C@H]1O equals > 30 µM

Per the reported 5-hydroxytryptamine receptor 1A (Homo sapiens, UniProt P08908) data, N=C(N)NC(=O)Cc1c(Cl)cccc1Cl has AC50 of 5.4 µM

Others:
Item CCOC(=O)[C@H](CCc1ccccc1)N[C@@H](C)C(=O)N1Cc2ccccc2C[C@H]1C(=O)O ; assay system 5-hydroxytryptamine receptor 1A (Homo sapiens, UniProt P08908); AC50 reported as > 10 µM

CCCCCCOC(=O)NC(=N)c1ccc(NCc2nc3cc(C(=O)N(CCC(=O)OCC)c4ccccn4)ccc3n2C)cc1 [DABIGATRAN ETEXILATE] on 5-hydroxytryptamine receptor 1A (Homo sapiens, UniProt P08908) gives AC50 = > 30 µM

###

target: D(1A) dopamine receptor (Homo sapiens, UniProt P21728); format: functional, cell-based; note: assay procedure not described here
Sequence (P21728 whole entry): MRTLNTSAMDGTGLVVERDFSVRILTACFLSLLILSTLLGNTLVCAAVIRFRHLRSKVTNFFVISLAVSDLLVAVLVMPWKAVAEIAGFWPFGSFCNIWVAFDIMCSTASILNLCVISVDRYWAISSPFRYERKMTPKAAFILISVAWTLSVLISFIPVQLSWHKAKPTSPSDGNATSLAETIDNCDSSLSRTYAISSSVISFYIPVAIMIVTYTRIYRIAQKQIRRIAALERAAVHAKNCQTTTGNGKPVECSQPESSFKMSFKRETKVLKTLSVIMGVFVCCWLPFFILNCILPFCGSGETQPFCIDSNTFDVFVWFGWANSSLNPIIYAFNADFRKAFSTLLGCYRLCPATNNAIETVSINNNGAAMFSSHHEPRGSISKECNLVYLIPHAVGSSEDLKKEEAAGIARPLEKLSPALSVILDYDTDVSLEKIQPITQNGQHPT
Catalogue of molecules with associated AC50

D(1A) dopamine receptor (Homo sapiens, UniProt P21728) assay, molecule OCC(CO)N[C@H]1C[C@](O)(CO)[C@@H](O)[C@H](O)[C@H]1O [VOGLIBOSE] , recorded AC50 = > 30 µM

Let me check: CN(C)CCc1c[nH]c2ccc(CS(=O)(=O)N3CCCC3)cc12 [ALMOTRIPTAN] , system D(1A) dopamine receptor (Homo sapiens, UniProt P21728), measured AC50 is > 30 µM

New cases:
Summary: C[C@]12CCC(=O)C=C1[C@@H]1C[C@@H]1[C@H]1[C@@H]3[C@@H]4C[C@@H]4[C@@]4(CCC(=O)O4)[C@@]3(C)CC[C@@H]12 [DROSPIRENONE] , D(1A) dopamine receptor (Homo sapiens, UniProt P21728), AC50 = > 30 µM

###

Each item that follows carries a reported AC50.
molecular target: Gamma-aminobutyric acid receptor subunit alpha-1 (Rattus norvegicus, UniProt P62813); type: functional; note: assay procedure not described here
Sequence (P62813 whole entry): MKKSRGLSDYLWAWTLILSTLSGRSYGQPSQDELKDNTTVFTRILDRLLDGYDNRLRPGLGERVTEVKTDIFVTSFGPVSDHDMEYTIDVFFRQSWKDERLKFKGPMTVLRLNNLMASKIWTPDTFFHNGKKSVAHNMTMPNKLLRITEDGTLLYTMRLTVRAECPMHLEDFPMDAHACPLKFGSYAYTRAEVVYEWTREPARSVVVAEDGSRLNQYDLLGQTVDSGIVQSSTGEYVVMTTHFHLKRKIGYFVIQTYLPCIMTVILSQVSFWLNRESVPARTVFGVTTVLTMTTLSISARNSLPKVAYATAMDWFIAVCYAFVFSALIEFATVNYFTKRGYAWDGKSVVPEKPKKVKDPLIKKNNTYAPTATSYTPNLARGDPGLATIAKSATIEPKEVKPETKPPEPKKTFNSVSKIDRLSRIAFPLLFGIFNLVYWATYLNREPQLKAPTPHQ

For this compound ( C[C@H](CCC(=O)O)[C@H]1CC[C@H]2[C@@H]3[C@H](O)C[C@@H]4C[C@H](O)CC[C@]4(C)[C@H]3CC[C@]12C ), measured AC50 is > 30 µM

The compound CCN(CC)C(C)C(=O)c1ccccc1 (configuration not stated) showed AC50 equal to > 10 µM

COc1ccc(-n2nc(C(N)=O)c3c2C(=O)N(c2ccc(N4CCCCC4=O)cc2)CC3)cc1 yielded AC50 of > 30 µM

// AC50 value for CC(=O)OCC1=C(C(=O)O)N2C(=O)[C@@H](NC(=O)Cc3cccs3)[C@H]2SC1 : > 30 µM

Others:
Query O=C(C[S+]([O-])Cc1ccco1)NC/C=C\COc1cc(CN2CCCCC2)ccn1 (configuration not stated) yields AC50 of > 10 µM

Recorded result, CS(=O)(=O)NC(=O)CCC/C=C\C[C@H]1C(=O)C[C@@H](O)[C@@H]1/C=C/[C@@H](O)COc1ccccc1 , AC50: > 30 µM

Please fill in: AC50 reported for CCC1(CC)C(=O)NC(=O)N(C)C1=O = > 10 µM

###

biological target: UniProt P11229; format: functional, cell-based
Sequence (P11229 whole entry): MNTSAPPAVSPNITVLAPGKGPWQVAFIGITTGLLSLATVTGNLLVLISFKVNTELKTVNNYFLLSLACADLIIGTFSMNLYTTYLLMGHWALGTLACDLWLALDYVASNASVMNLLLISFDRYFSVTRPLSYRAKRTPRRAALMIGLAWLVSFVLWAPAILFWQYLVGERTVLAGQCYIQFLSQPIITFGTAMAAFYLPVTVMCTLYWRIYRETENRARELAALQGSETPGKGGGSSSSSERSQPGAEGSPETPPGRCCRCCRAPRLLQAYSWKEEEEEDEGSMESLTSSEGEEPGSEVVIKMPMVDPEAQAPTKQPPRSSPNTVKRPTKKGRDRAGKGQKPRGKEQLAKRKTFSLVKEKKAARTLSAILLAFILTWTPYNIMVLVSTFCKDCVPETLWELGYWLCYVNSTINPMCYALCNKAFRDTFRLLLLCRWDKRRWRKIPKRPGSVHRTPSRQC
AC50 values by entry

Please review the following examples before continuing.
Entry CCCCCCCC/C=C\CCCCCCCC(=O)O [OLEIC ACID] — recorded AC50 = 13.2 µM

Input COCC(=O)O[C@]1(CCN(C)CCCc2nc3ccccc3[nH]2)CCc2cc(F)ccc2[C@@H]1C(C)C [MIBEFRADIL] . Output AC50: > 3 µM

// sample CC(C)N1CCOC(c2cccc(C(F)(F)F)c2)C1 (stereo not given) [OXAFLOZANE] , its AC50 was > 30 µM

Further cases:
Recorded AC50 (compound NC(=O)N/N=C/c1ccc([N+](=O)[O-])o1 [NITROFURAZONE] ): > 30 µM

In plain terms, Cc1cnc(C(=O)O)c[n+]1[O-] [ACIPIMOX] has a documented AC50 of > 30 µM

Query CC#CC(=O)N1CCC[C@H]1c1nc(-c2ccc(C(=O)Nc3ccccn3)cc2)c2c(N)nccn12 [ACALABRUTINIB] yields AC50 of > 30 µM

###

target: UniProt:P21554
Sequence (P21554 whole entry): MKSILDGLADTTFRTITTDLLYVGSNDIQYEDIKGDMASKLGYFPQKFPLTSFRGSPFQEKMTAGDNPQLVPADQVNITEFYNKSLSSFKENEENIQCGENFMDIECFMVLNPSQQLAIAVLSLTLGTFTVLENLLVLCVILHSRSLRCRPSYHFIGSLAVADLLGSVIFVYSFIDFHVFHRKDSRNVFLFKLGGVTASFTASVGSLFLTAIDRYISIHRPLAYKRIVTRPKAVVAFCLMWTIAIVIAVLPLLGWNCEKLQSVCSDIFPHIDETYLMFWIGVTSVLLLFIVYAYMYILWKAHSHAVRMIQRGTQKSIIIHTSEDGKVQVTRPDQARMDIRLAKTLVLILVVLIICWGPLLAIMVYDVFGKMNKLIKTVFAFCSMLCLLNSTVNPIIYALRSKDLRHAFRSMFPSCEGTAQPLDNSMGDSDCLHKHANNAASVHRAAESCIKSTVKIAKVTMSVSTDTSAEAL
MEASURED ENDPOINT: AC50

Solved entries (count: 4):
// field: AC50; key: CCOc1cc2ncc(C#N)c(Nc3ccc(OCc4ccccn4)c(Cl)c3)c2cc1NC(=O)/C=C/CN(C)C ; value = > 10 µM

# AC50 (compound: CCC1(CC)C(=O)NC(=O)N(C)C1=O ) is > 10 µM

// recorded AC50 for O=C(O)c1ccc2nc(-c3cc(Cl)cc(Cl)c3)oc2c1 : 22 µM

So, CCOc1ccccc1OCCN[C@H](C)Cc1ccc(OC)c(S(N)(=O)=O)c1 ? Its AC50 was > 10 µM

# evaluate next
Per the record, COC(=O)CCc1ccc(OCC(O)CNC(C)C)cc1 (stereo not given) has AC50 of > 30 µM

###

Biological target: Gastrin/cholecystokinin type B receptor (Homo sapiens); note: assay procedure not described here
Sequence (P32239 whole entry): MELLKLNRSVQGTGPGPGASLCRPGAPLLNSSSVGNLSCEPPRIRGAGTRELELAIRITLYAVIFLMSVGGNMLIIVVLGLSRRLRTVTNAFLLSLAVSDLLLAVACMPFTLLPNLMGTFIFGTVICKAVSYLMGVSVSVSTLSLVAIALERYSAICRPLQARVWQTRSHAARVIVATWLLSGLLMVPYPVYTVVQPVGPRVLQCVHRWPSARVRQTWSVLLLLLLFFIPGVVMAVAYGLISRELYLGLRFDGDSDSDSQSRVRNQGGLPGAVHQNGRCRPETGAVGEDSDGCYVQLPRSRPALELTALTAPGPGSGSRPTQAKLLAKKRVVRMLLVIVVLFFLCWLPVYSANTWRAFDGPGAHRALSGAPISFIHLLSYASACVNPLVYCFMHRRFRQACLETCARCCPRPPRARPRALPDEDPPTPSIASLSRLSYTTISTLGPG
Quick reference: AC50 of the listed items.

See these solved cases before continuing.
CCOC(=O)[C@H](CCc1ccccc1)N[C@@H](C)C(=O)N1Cc2ccccc2C[C@H]1C(=O)O yielded AC50 of > 30 µM

Just so you know, measured AC50 for CCOC(=O)Nc1ccc(NCc2ccc(F)cc2)nc1N came out at > 30 µM

New cases:
// field: AC50; key: Nc1nc(Cl)nc2c1ncn2[C@@H]1O[C@H](CO)[C@@H](O)[C@@H]1F ; value = > 30 µM

molecule C[C@]12C=CC(=O)C=C1C(Cl)=C[C@@H]1[C@@H]2[C@@H](O)C[C@@]2(C)[C@H]1CC[C@]2(O)C(=O)CO , AC50 observed: > 30 µM
